# assay_overview: NCI Yeast Anticancer Drug Screen. Data for the mec2-1 strain (AID 157)
# cond: S. cerevisiae mec2-1 strain, at 50.0 µM, stronger effect = higher value
The panel holds about 79,000 compounds, 15% with a hit somewhere; the sample as a whole holds those more often.
Class (by growth inhibition) -- bucket A = under 30%, bucket B = from 30% up to 70%, bucket C = 70% and over

Exercise: Which class is correct for the following molecule? NC(=O)C1(Br)C=[N+](Cc2ccccc2)CCC1 (stereo not drawn)
Solution: bucket A

Exercise: Which class is correct for the following molecule? C=C1CC2(CCS(=O)(=O)c3ccccc32)OC1=O (stereo not drawn)
Solution: bucket B

Exercise: Which class is correct for the following molecule? Cc1csc2[n+]1C(=O)/C(=C\c1ccc([N+](=O)[O-])cc1)S2
Solution: bucket B

Exercise: Which class is correct for the following molecule? O=C1NC(O)c2cccc(Cl)c2O1 (stereo not drawn)
Solution: bucket C

Exercise: Which class is correct for the following molecule? CCC(C)OC(=S)S (stereo not drawn)
Solution: bucket B

Exercise: Which class is correct for the following molecule? COc1ccccc1NC(=O)C1=CNC(C)=C(C(=O)Nc2ccccc2OC)C1/C=C/c1ccccc1 (stereo not drawn)
Solution: bucket A

Exercise: Which class is correct for the following molecule? CCOC(=O)c1cnc2cc3cccccc3n2c1=O
Solution: bucket B

Exercise: Which class is correct for the following molecule? O=C(CC(c1ccccc1)N1CCCCC1)OC1c2ccccc2-c2ccccc21 (stereo not drawn)
Solution: bucket A

Exercise: Which class is correct for the following molecule? c1ccc(-c2cc(Nc3ccc4c(c3)OCO4)c3cc(C4CCCCC4)ccc3n2)cc1
Solution: bucket C

Exercise: Which class is correct for the following molecule? O=C(Nc1ccc(O)cc1O)c1ccccc1
Solution: bucket C

Exercise: Which class is correct for the following molecule? CC(C)N(C(=O)C12C3C4C5(C#N)C3C1(C#N)C5C42I)C(C)C (stereo not drawn)
Solution: bucket B

Exercise: Which class is correct for the following molecule? CC(=O)N/N=C1/CC[C@@]2(C)C(=CC[C@H]3C4CCC(C(C)CCCC(C)C)[C@@]4(C)CCC32)C1(C)C (stereo partly drawn)
Solution: bucket A

Exercise: Which class is correct for the following molecule? NS(=O)(=O)c1ccc(NC(=O)Cc2nc3ccccc3s2)cc1
Solution: bucket C

Exercise: Which class is correct for the following molecule? CC1(C)NC(=O)C(C)(C)NC1=O
Solution: bucket A

Exercise: Which class is correct for the following molecule? CC(=O)OCC(C(N)=O)(c1ccccc1)c1ccccc1
Solution: bucket A

Exercise: Which class is correct for the following molecule? Cc1cc(=O)n(-c2ccc(F)cc2)n1C
Solution: bucket A

Exercise: Which class is correct for the following molecule? COc1ccc(C2C3=C(CC(C)(C)CC3=O)Oc3cc4c(cc32)OCO4)c(OC)c1 (stereo not drawn)
Solution: bucket B

Exercise: Which class is correct for the following molecule? Cc1c2cnccc2c(C)c2c1c1ccccc1n2CCCCCCNCc1ccccc1
Solution: bucket C

Exercise: Which class is correct for the following molecule? O=C(C(/C=N\C(=S)Nc1ccccc1Cl)=C(/O)c1ccccc1)c1ccccc1
Solution: bucket C

Exercise: Which class is correct for the following molecule? Cc1cc(Br)c(NC(=O)CBr)cc1C
Solution: bucket C

Exercise: Which class is correct for the following molecule? O=[N+]([O-])/C(C(Cl)=C(Cl)Cl)=C(/Nc1ccccc1)SCc1ccccc1
Solution: bucket A

* * *

# assay_overview: NCI Yeast Anticancer Drug Screen. Data for the mec2-1 strain (AID 157)
# cond: S. cerevisiae mec2-1 strain, at 50.0 µM (retest, dose inferred, filed as 5.0)
The panel holds about 79,000 compounds, 15% with a hit somewhere; the sample as a whole holds those more often. Active and inactive are the calls of the source. Cut-off read from the data, not from the text of the source: active = growth inhibition above about 70%; inactive = the rest.
Hi! Could you answer with just one of these? label 1 (active), label 0 (inactive)

Exercise: Which outcome was assigned to O=C1C(Cl)=C(Cl)C(=C2C(Cl)=C(Cl)C(=O)C(Cl)=C2Cl)C(Cl)=C1Cl in this test?
Solution: label 1

Exercise: Which outcome was assigned to CN(C)CC(CN(C)C)C(=O)c1ccc2c(c1)OCO2 in this test?
Solution: label 0

Exercise: Which outcome was assigned to CCCCCCCC(=O)O[C@H]1[C@H]2[C@@H](CC1(C)C)C(=O)[C@]13O[C@H]1C(=O)[C@]1(CO1)[C@]23C in this test?
Solution: label 1

Exercise: Which outcome was assigned to O=[N+]([O-])c1ccc(CN2CCN(c3nccs3)CC2)cc1 in this test?
Solution: label 0

Exercise: Which outcome was assigned to C1CCC(C2=NC3CCCCC3SC2)CC1 (stereo unspecified) in this test?
Solution: label 1

Exercise: Which outcome was assigned to COc1cc(C2C(C(=O)Nc3ccc(Cl)c(Cl)c3)=C(C)NC(C)=C2C(=O)Nc2ccc(Cl)c(Cl)c2)ccc1O in this test?
Solution: label 0

Exercise: Which outcome was assigned to CC1=C/C(=C\C=C2/N(C)c3c(C)cccc3C2(C)C)C(=O)c2ncccc21 in this test?
Solution: label 1

Exercise: Which outcome was assigned to N#CC(C(=O)C(=O)NC1C2CC3CC(C2)CC1C3)c1c(Cl)cccc1Cl (stereo unspecified) in this test?
Solution: label 0

Exercise: Which outcome was assigned to O=C1c2ccccc2C(=O)c2c(NCCNCCO)ccc(O)c21 in this test?
Solution: label 1

Exercise: Which outcome was assigned to O=[N+]([O-])c1cccc(F)c1O in this test?
Solution: label 1

Exercise: Which outcome was assigned to C[N+](C)([O-])CCC=C1c2ccccc2CCc2ccccc21 in this test?
Solution: label 0

* * *

# assay_overview: NCI Yeast Anticancer Drug Screen. Data for the mec2-1 strain (AID 157)
# cond: S. cerevisiae mec2-1 strain, at 50.0 µM, stronger effect = higher value
The panel holds about 79,000 compounds, 15% with a hit somewhere; the sample as a whole holds those more often.
measured_parameter: growth inhibition (%)
# number only, unit % dropped from output

Exercise: Give the value of growth inhibition reported for the following: CCCOC(=O)C(S)C(S)C(=O)OCCC (stereo not given)
Solution: 2.15

Exercise: Give the value of growth inhibition reported for the following: COC(=O)C1(NC(=O)C(CC(=O)OCc2ccccc2)NC(=O)OCc2ccccc2)CCCCCC1 (stereo not given)
Solution: 8.9

Exercise: Give the value of growth inhibition reported for the following: CSCCOC(=O)c1cc(NC(=S)c2ccoc2C)ccc1Cl
Solution: 68.9

Exercise: Give the value of growth inhibition reported for the following: COc1ccc(CC/C(=N/O)c2ccccc2)cc1
Solution: 96.9

Exercise: Give the value of growth inhibition reported for the following: Cc1cc(N)c2cc(NC(=O)Nc3ccc4nc(C)cc(N)c4c3)ccc2n1
Solution: 99

Exercise: Give the value of growth inhibition reported for the following: CCCCCCCCCCCCCC/C(=C/OCC[N+](C)(C)C)OC(C)=O (tested in a mixture with another compound)
Solution: 99.8

Exercise: Give the value of growth inhibition reported for the following: O=C(NC1CCN(Cc2ccccc2)CC1)c1ccc(I)cc1
Solution: 49.7

Exercise: Give the value of growth inhibition reported for the following: CC1=C(C(=O)Nc2cc(C)ccc2C)C(c2cccc([N+](=O)[O-])c2)C(C(=O)Nc2cc(C)ccc2C)=C(C)N1
Solution: 34.5

Exercise: Give the value of growth inhibition reported for the following: CCN(CC)CCOc1ccc(/C(C#N)=C/c2ccc3ccccc3c2)cc1
Solution: 99.5

Exercise: Give the value of growth inhibition reported for the following: COC(=O)c1c(C(N)=O)c(C)n(NC(=O)Nc2ccccc2)c1C
Solution: 85.1

* * *

# assay_overview: NCI Yeast Anticancer Drug Screen. Data for the cln2 rad14 strain (AID 165);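 note: 0% = growth equal to vehicle treated cultures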
# cond: S. cerevisiae cln2 rad14 strain, at 50.0 µM, stronger effect = higher value
The panel holds about 79,000 compounds, 15% with a hit somewhere; the sample as a whole holds those more often. Where a SMILES comes first, the peptide text is derived from it. [ ]: non-standard residue; d: D form. Phe(4-Cl) = N[CH](Cc1ccc(Cl)cc1)C(=O)O; 3Pal = N[CH](Cc1cccnc1)C(=O)O
Class (by growth inhibition) -- A = under 40%, B = from 40% up to 90%, C = 90% and over

Exercise: Which class is correct for the following compound? C[N+](C)([O-])CCC=C1c2ccccc2CCc2ccccc21
Solution: A

Exercise: Which class is correct for the following compound? O=C1c2ccccc2C(=O)c2cc(S(=O)(=O)Cl)ccc21
Solution: A

Exercise: Which class is correct for the following compound? CCOC(=O)Nc1nc2ccc(Cn3cccc3)cc2[nH]1
Solution: A

Exercise: Which class is correct for the following compound? Cc1ccc(SCN2CCCCC2)cc1 (tested in a mixture with another compound)
Solution: A

Exercise: Which class is correct for the following compound? O=C(O)c1ccc2c(c1)CCCC2
Solution: B

Exercise: Which class is correct for the following compound? COc1ccc(-c2c(-c3ccccc3)c(C)nc3nc(SC)nc(SC)c23)cc1OC
Solution: C

Exercise: Which class is correct for the following compound? COc1ccc(Cc2ccccc2C(=O)O)c2ccccc12
Solution: C

Exercise: Which class is correct for the following compound? O=c1c2ccccc2c2ccccc2n1O
Solution: C

Exercise: Which class is correct for the following compound? CC(=O)NC(Cc1ccc(Cl)cc1)C(=O)NC(Cc1ccc(Cl)cc1)C(=O)NC(Cc1cccnc1)C(=O)NC(CO)C(=O)NC(Cc1ccc(O)cc1)C(=O)NC(CCCN=C(N)N)C(=O)NC(CC(C)C)C(=O)NC(CCCN=C(N)N)C(=O)N1CCCC1C(=O)NC(C)C(=O)O (centres undefined) (Ac-[Phe(4-Cl)][Phe(4-Cl)][3Pal]SYRLRPA-OH; configuration not given here)
Solution: A

Exercise: Which class is correct for the following compound? CC12CC(O)C3C(CCC4CCCCC43C)C1CC/C2=N/O (centres undefined)
Solution: B

Exercise: Which class is correct for the following compound? Clc1cc(Cl)c(OCCOCCI)c(Cl)c1
Solution: A

Exercise: Which class is correct for the following compound? CC1(CCC(=O)O)c2ccc3ccccc3c2Oc2c1ccc1ccccc21
Solution: C

Exercise: Which class is correct for the following compound? CCOC(=O)C(NC(C)=O)[CH](c1ccccc1)[Sn]([c]1ccccc1)([c]1ccccc1)[c]1ccccc1 (centres undefined)
Solution: C

Exercise: Which class is correct for the following compound? O=C(O)c1cc2c3ccccc3sc2c2ccccc12
Solution: A

Exercise: Which class is correct for the following compound? CCCCCCCCCCCCNC(=O)c1ccc[n+](Cc2ccc(Cl)c(Cl)c2)c1
Solution: C

Exercise: Which class is correct for the following compound? CSC1=NSC(c2ccccc2)=C(c2ccccc2)S1
Solution: B

Exercise: Which class is correct for the following compound? CC(NNC(=S)N1CC2CCC(CC2)C1)c1nccc2ccccc12 (centres undefined)
Solution: C

Exercise: Which class is correct for the following compound? CC(/C=C/c1cccs1)=N\NC(=S)NCC(C)C
Solution: C

Exercise: Which class is correct for the following compound? CC1/C(=N\O)CC(c2ccccc2)N(C)C1c1ccccc1 (centres undefined)
Solution: B

Exercise: Which class is correct for the following compound? Cc1ccc(C(Cl)(c2ccc(C)cc2)c2ccc(C)cc2)cc1
Solution: C

Exercise: Which class is correct for the following compound? C(=C\[n+]1ccc2ccccc2c1)/c1ccccc1
Solution: B

Exercise: Which class is correct for the following compound? O=C(C[P+](c1ccccc1)(c1ccccc1)c1ccccc1)c1ccc(Br)cc1
Solution: C

Exercise: Which class is correct for the following compound? CN(C)C(=S)N/N=C/c1ccccn1
Solution: C

Exercise: Which class is correct for the following compound? CCC(c1ccc(O)cc1)C(CC)c1ccc(O)c(CN(C)C)c1 (centres undefined)
Solution: B

Exercise: Which class is correct for the following compound? Cc1ccc(Nc2nc(C)c(C(=O)C/C(=N\NC(N)=S)C(=O)Nc3ccc(Cl)cc3C)s2)cc1
Solution: A

Exercise: Which class is correct for the following compound? O=c1cccccc1[O-].O=c1cccccc1[O-].O=c1cccccc1[O-].[Dy+3]
Solution: B

Exercise: Which class is correct for the following compound? c1ccc(COc2ccc(C[P+](c3ccccc3)(c3ccccc3)c3ccccc3)cc2)cc1
Solution: C

Exercise: Which class is correct for the following compound? O=C(O)/C=C1\c2ccccc2CCC1c1ccc2ccccc2c1 (centres undefined)
Solution: C

Exercise: Which class is correct for the following compound? CN(C)C1=NC(N(C)C)=C2C=CC=C12
Solution: B

Exercise: Which class is correct for the following compound? CCOc1ccc(/C=N\NC(=O)c2ccco2)cc1OCC
Solution: B

Exercise: Which class is correct for the following compound? CC(=O)Oc1ccc(/C=C2\N=C(c3ccccc3)OC2=O)c(OC(C)=O)c1
Solution: A

Exercise: Which class is correct for the following compound? C/C(=N\NC(=S)N(C)C)c1cccnn1
Solution: B

Exercise: Which class is correct for the following compound? CCOC(=O)C(=Cn1c(=S)[nH]c2ccc([N+](=O)[O-])cc21)C(=O)OCC
Solution: A

Exercise: Which class is correct for the following compound? CCCCCCCCCCCCNCc1ccc(O)c(OC)c1
Solution: C

Exercise: Which class is correct for the following compound? CCCC(/C=N/N=C(N)N)=N\N=C(N)N
Solution: A

Exercise: Which class is correct for the following compound? O=C1CSC(=S)N1/N=C/c1ccc(Cl)c([N+](=O)[O-])c1
Solution: A

Exercise: Which class is correct for the following compound? COC1OC(CBr)C(OC(C)=O)C(OC(C)=O)C1OC(C)=O (centres undefined)
Solution: A

Exercise: Which class is correct for the following compound? CC1CCC(SC2CC(=O)CCC2=O)CC1 (centres undefined)
Solution: C

Exercise: Which class is correct for the following compound? Clc1ccc(/C=N\Nc2ccccc2)c(Cl)c1
Solution: A

Exercise: Which class is correct for the following compound? C=C(Br)COc1ccc2c(C)cc(=O)oc2c1
Solution: A

Where these numbers come from: PubChem BioAssay (NCI)
